The reported numbers originate from the supplement of paper PMC10567573.

B1: TBX5 (parent)
chain: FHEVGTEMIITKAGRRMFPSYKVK

# Variants of: B1
# Protocol Notes: protein stability index of a GFP-peptide fusion (GPS, HEK-293T) (PSI 1-6); higher = more stable;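 also: lentivirally expressed fusions sorted by FACS into six bins by GFP to DsRed ratio, PSI derived from sequencing read proportions per bin multiplied by bin number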
# Condition Context: c terminus: a fixed tail appended
Items are presented alongside their recorded protein stability index.
No unit in the answer, please; the number alone is enough.

>  <Chain>
FHEVGTEMIITKAGRRMFPSYKVF

>  <protein stability index>
2.83

$$$$
>  <Chain>
FHEVGTNMIITKAGRRMFPSYKVK

>  <protein stability index>
1.88

$$$$
>  <Chain>
FHEVGTEMIDTKAGRRMFPSYKVK

>  <protein stability index>
3.5

$$$$
>  <Chain>
FHEVGTEMIITKAGRRMFPSYKMK

>  <protein stability index>
1.78

$$$$
>  <Chain>
FHEVGTEMIIVKAGRRMFPSYKVK

>  <protein stability index>
1.76

$$$$
>  <Chain>
NHEVGTEMIITKAGRRMFPSYKVK

>  <protein stability index>
3.4

$$$$

[in] Tell me its protein stability index given `FHEVGREMIITKAGRRMFPSYKVK` as the entry.
[out] 1.62

[in] Tell me its protein stability index given `FHEVGTEMTITKAGRRMFPSYKVK` as the entry.
[out] 2.84

[in] Tell me its protein stability index given `FREVGTEMIITKAGRRMFPSYKVK` as the entry.
[out] 2.53

[in] Tell me its protein stability index given `FHEVGTEMIITKAGRLMFPSYKVK` as the entry.
[out] 2.09

[in] Tell me its protein stability index given `FHEVGTEMIITKAGRRMFPSYKAK` as the entry.
[out] 2.35
